# targetOfAssay: T1, Cdc13-DBD (Saccharomyces cerevisiae, UniProt P32797 497-694)
# T1 sequence: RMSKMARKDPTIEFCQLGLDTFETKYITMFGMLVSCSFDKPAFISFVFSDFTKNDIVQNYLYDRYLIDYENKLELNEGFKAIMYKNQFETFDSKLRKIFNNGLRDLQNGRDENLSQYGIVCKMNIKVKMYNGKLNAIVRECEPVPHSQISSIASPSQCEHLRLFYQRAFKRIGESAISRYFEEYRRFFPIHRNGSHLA
# protocolText: EMSA
valueKind: pKd
Please keep in mind that pKd is minus log10 of the molar concentration; only the number is needed.

[ask] Specify reported pKd for the binder shown: GTGTGGGTGTG (ssDNA) [Tel11]
[reply] 11.47
